Answer each item with its documented LD50.
- experimental details: Toxicity in mouse assessed as lethal dose administered intraperitoneally
- experimental setup: in vivo, route ip
Enter your answer as a number in mg/kg; do not include the unit.

Lab note: measured LD50 of `C[C@@]12C(=O)OC(=O)[C@]1(C)[C@H]1CC[C@@H]2O1` was 1

So for O=C(O)[C@@H]1[C@H](C(=O)O)[C@H]2CC[C@@H]1O2 [ENDOTHALL] , the logged LD50 turned out to be 14

Given item `C[C@]1(C(=O)O)[C@@H]2CC[C@@H](O2)[C@@]1(C)C(=O)O` , the value recorded as its LD50 is 1.8

Looking up O=C1OC(=O)C2C3CCC(O3)C12 (centres undefined) , I found its LD50 recorded as 4

###

- Test system: A-431
- experimental details: Anticancer activity against human A-431 cells assessed as cell growth inhibition measured after 72 hrs by MTT assay
- Assay type: functional, cell-based
- experimental setup: A-431, 72 h
reported endpoint: IC50

The compound listed as O=C(NCc1ccc(-c2ccccc2)cc1)C(CNC(=O)[C@H]1[C@@H](C(=O)O)[C@@H]2CC[C@H]1O2)Cc1ccco1 (stereo partly specified) has a reported IC50 of 45 nM

###

- Test system: Bel-7402
- experimental details: Anticancer activity against human Bel-7402 cell assessed as cell growth inhibition measured after 24 to 48 hrs by SRB colorimetry assay
- Type: functional, cell-based
reported endpoint: IC50 (µM)
Provide the reading as a plain figure in µM.

In plain terms, `O=C(O)[C@@H]1[C@H](C(=O)O)[C@H]2CC[C@@H]1O2` has a documented IC50 of 12.5

###

- Test system: SMMC-7721
- experimental details: Anticancer activity against human SMMC-7721 cell assessed as cell growth inhibition measured after 24 to 48 hrs by SRB colorimetry assay
- Assay type: functional, cell-based
reported endpoint: IC50 (µM)
Answer format: numeric, µM implied, no suffix.

IC50 measured on `O=C(O)[C@@H]1[C@H](C(=O)O)[C@H]2CC[C@@H]1O2` = 12.5

###

- experimental details: Cytotoxicity against human Bone marrow cell assessed as cell growth inhibition by MTS assay
- Type: toxicity, cell-based
- experimental setup: bone marrow cells
reported endpoint: IC50 (µg/mL)
Respond numerically; units are µg/mL and should not be typed.

Query `C[C@@]12C(=O)OC(=O)[C@]1(C)[C@H]1CC[C@@H]2O1` yields IC50 of 6.5

###

- Test system: Hep 3B2
- experimental details: Anticancer activity against human Hep3B cells assessed as cell growth inhibition incubated for 48 hrs by MTS assay
- Type: functional, cell-based
reported endpoint: IC50 (µM)
Just the number please, in µM, no unit attached.

Sure, the documented IC50 for C[C@@]12C(=O)N(c3nc4ccc(OC(F)(F)F)cc4s3)C(=O)[C@]1(C)[C@H]1CC[C@@H]2O1 [CANTHARIDIMIDE] is 15.8

###

Please respond with reported pIC50 for every item in the list.
- Species: Homo sapiens
- experimental details: Anticancer activity against human Liver cancer cell assessed as cell growth inhibition
- Type: functional
- experimental setup: Homo sapiens, Liver cancer cell
// scale note: pIC50 = -log10(conc_M); give the bare number

Query `O=C(O)[C@@H]1[C@H](C(=O)O)[C@H]2CC[C@@H]1O2` yields pIC50 of 4.92

For this molecule ( C[C@@]12C(=O)N(c3nc4ccc(OC(F)(F)F)cc4s3)C(=O)[C@]1(C)[C@H]1CC[C@@H]2O1 [CANTHARIDIMIDE] ), measured pIC50 is 5.19

Record `C[C@@]12C(=O)OC(=O)[C@]1(C)[C@H]1CC[C@@H]2O1` . Reported pIC50: 5.70

###

- Tested on: HepG2
- experimental details: Anticancer activity against human HepG2 cells assessed as cell growth inhibition measured after 72 hrs by MTT assay
- Assay type: functional, cell-based
- experimental setup: HepG2, 72 h
Answer each item with its documented IC50.
Just the number in µM, nothing appended.

IC50 in this record for C[C@@]12C(=O)OC(=O)[C@]1(C)[C@H]1CC[C@@H]2O1 [CANTHARIDIN] : 19.1

Kindly note the recorded IC50 for O=C1OC(=O)C2C3CCC(O3)C12 (stereo not given) [DEMETHYL-CANTHARIDIN] , which is 213

Quick note, IC50 for `C[C@]1(C(=O)O)[C@@H]2CC[C@@H](O2)[C@@]1(C)C(=O)O` landed at 218

###

- Organism: Homo sapiens
- experimental details: Anticancer activity against human Liver cancer cell assessed as cell growth inhibition
- Type: functional
- experimental setup: Homo sapiens, Liver cancer cell
pIC50: −log10 of the molar value.
reported endpoint: pIC50

Entry `C[C@@]12C(=O)N(c3ncc([N+](=O)[O-])s3)C(=O)[C@]1(C)[C@H]1CC[C@@H]2O1` ; pIC50 = > 6.00

Record O=C1OC(=O)C2C3CCC(O3)C12 (stereo not drawn) , field pIC50: < 4.82

Per the records, this molecule ( `C[C@]1(C(=O)O)[C@@H]2CC[C@@H](O2)[C@@]1(C)C(=O)O` ) has pIC50 equal to < 4.30
